- target: His6-BRD4 (BD1) (Homo sapiens, UniProt O60885)
- Construct: A pET28 plasmid containing residues 44–168 of BRD4 (BD1), a 6xHis tag, a TEV protease cleavage site; made in house; host or cells: E. coli Rosetta (D3)
- protocol-details: Surface plasmon resonance (SPR) single-dose screening
- Assay type: binding
- protocol-conditions: single dose 10 µM, n = 2
endpoint: SPR RESULT

> print(dat)
                                   compound  observed
1  CC(NC(=O)CC1(C)CCCO1)C1(O)CN(C(=O)c2nsnc2O)C1 (centres unmarked)  Negative
2  COc1cccc(-n2c(C)nnc2SCC(=O)N2CC3CCC2CN3C(=O)c2ccns2)c1 (centres unmarked)  Negative
3  Cc1nnc(NC(=O)NCc2cccc(C(=O)NCC3CCCO3)c2)s1 (centres unmarked)  Positive
4  CN(C)S(=O)(=O)c1ccc(-n2nc(-c3cccnc3)nc2-c2cn(C)c(=O)c3ccccc23)cc1  Positive
5  COc1ccc(C2(NCC(=O)Nc3cc(-n4nnnc4C)ccc3F)CCOCC2)cc1  Negative
6  Cc1ncc(CNC(=O)NCc2cccc(S(=O)(=O)NC(C)C)c2)c(O)n1  Positive
7  COc1ccc(CNc2ccc3ccn(C)c(=O)c3c2)cc1OCC(C)C  Negative
8  COC1(CNC(=O)C2=C(Cl)CCCC2)CCN(C(=O)c2sc3nnc(C)c(C)c3c2N)CC1  Positive

* * *

- target: BRD4 (BD1) (Homo sapiens)
- Construct: A pET28 plasmid containing residues 44–168 of BRD4 (BD1), a 6xHis tag, a TEV protease cleavage site; 6xHis (N, cleaved yes); made in house; host or cells: E. coli Rosetta (D3)
- protocol-details: Differential scanning fluorimetry (DSF) single-dose thermal shift screening
- Type: binding
- protocol-conditions: DSF, compound 10 µM, BRD4 (BD1) 2 µM, n = 3, decimal comma; read-out: ΔTm ºC at [10 µM]
endpoint: ΔTm at 10 µM (°C)

> print(dat)
                                   molecule      endpoint  observed
1  CCCc1c(C(=O)N2CCOC(Cn3cc(-c4ccsc4)nn3)C2)[nH]c(C)c1C(C)=O (stereo not drawn)  ΔTm at 10 µM      2.02
2  CCCc1c(C(=O)N2CCCC2Cn2cc(-c3cc(C)nc(C)c3)nn2)[nH]c(C)c1C(C)=O (stereo not drawn)  ΔTm at 10 µM      0.49
3  Cc1ncc(CNC(=O)NCc2cccc(S(=O)(=O)NC(C)C)c2)c(O)n1  ΔTm at 10 µM      0.51

* * *

- target: His6-BRD4 (BD1) (Homo sapiens)
- Construct: A pET28 plasmid containing residues 44–168 of BRD4 (BD1), a 6xHis tag, a TEV protease cleavage site; made in house; host or cells: E. coli Rosetta (D3)
- protocol-details: Surface plasmon resonance (SPR) single-dose screening
- Format: binding
- protocol-conditions: SPR, compound 10 µM, 1% DMSO, n = 2, decimal comma
endpoint: RUs at [10 µM]

> print(dat)
                                    compound                          target        endpoint           observed
 1  Cc1cc(C)n2nc(NC(=O)N3CCC(F)(F)C4(CCOC4)C3)nc2n1 (centres unmarked)  His6-BRD4 (BD1) (Homo sapiens)  RUs at [10 µM]    9,66 ± 4,71 RUs
 2  COc1ccc2c(c1)N(C(=O)c1cn(C)c(=O)c3ccccc13)CC2  His6-BRD4 (BD1) (Homo sapiens)  RUs at [10 µM]  28,19 ± 22,85 RUs
 3  CCCc1c(C(=O)N2CCOC(CNC(=O)c3cc(C)ccn3)C2)[nH]c(C)c1C(C)=O (centres unmarked)  His6-BRD4 (BD1) (Homo sapiens)  RUs at [10 µM]    9,46 ± 0,53 RUs
 4  Cc1cc(C(=O)NCCc2nc3cc(Cl)ccc3[nH]2)n2ncnc2n1  His6-BRD4 (BD1) (Homo sapiens)  RUs at [10 µM]    9,01 ± 0,76 RUs
 5  CCCc1c(C(=O)N(C)C2CN(C(=O)c3cc(C)n[nH]3)C2)[nH]c(C)c1C(C)=O  His6-BRD4 (BD1) (Homo sapiens)  RUs at [10 µM]    16,1 ± 0,61 RUs
 6  Cc1nnc(NC(=O)CCC(=O)N2Cc3ccccc3OC3(CCOC3)C2)s1 (centres unmarked)  His6-BRD4 (BD1) (Homo sapiens)  RUs at [10 µM]     25 ± 11,77 RUs
 7  COC1(CNC(=O)c2nscc2Br)CN(C(=O)C2CCS(=O)(=O)N2)C1 (centres unmarked)  His6-BRD4 (BD1) (Homo sapiens)  RUs at [10 µM]   13,51 ± 3,27 RUs
 8  CCn1nnc2cc(C(=O)N3CCC(N(C)C(=O)C4CN(C)CCO4)C3)ccc21 (centres unmarked)  His6-BRD4 (BD1) (Homo sapiens)  RUs at [10 µM]    6,83 ± 2,31 RUs
 9  CCOc1ccc(-c2cn(C3CC(NC(=O)c4cc(C)nc5ncnn45)C3)nn2)cc1F (centres unmarked)  His6-BRD4 (BD1) (Homo sapiens)  RUs at [10 µM]    38,3 ± 6,87 RUs
10  COC(=O)C1(NCC(=O)Nc2nnc(C)s2)CC(C)(C)OC(C)(C)C1  His6-BRD4 (BD1) (Homo sapiens)  RUs at [10 µM]    8,96 ± 1,15 RUs
11  CCCc1c(C(=O)N2CCOC(Cn3cc(-c4ccsc4)nn3)C2)[nH]c(C)c1C(C)=O (centres unmarked)  His6-BRD4 (BD1) (Homo sapiens)  RUs at [10 µM]   20,06 ± 0,43 RUs
12  Cc1ccc(-n2c(C)nnc2SCC(=O)N2CCOCCC23COC3)cc1  His6-BRD4 (BD1) (Homo sapiens)  RUs at [10 µM]    3,87 ± 1,96 RUs
13  Cc1nnc2sc(C(=O)N3CCC4(CCC(NC(=O)Cc5csc(Cl)c5)CC4)CC3)c(N)c2c1C  His6-BRD4 (BD1) (Homo sapiens)  RUs at [10 µM]  48,37 ± 15,77 RUs
14  COc1cccc(-n2nc(-c3cscn3)nc2-c2cn(C)c(=O)c3ccccc23)c1  His6-BRD4 (BD1) (Homo sapiens)  RUs at [10 µM]  75,54 ± 39,86 RUs
15  CNC(=O)c1ccc(-n2nc(Cn3cccn3)nc2-c2cn(C)c(=O)c3ccccc23)cc1  His6-BRD4 (BD1) (Homo sapiens)  RUs at [10 µM]   10,43 ± 9,29 RUs
16  COc1ccc(C=C(CC(=O)Nc2nnc(C)s2)c2nc3ccccc3s2)cc1OC  His6-BRD4 (BD1) (Homo sapiens)  RUs at [10 µM]   21,72 ± 4,06 RUs
17  Cc1nnc(NC(=O)CNC(c2ccc(Cl)cc2)c2ccccc2C(C)C)s1 (centres unmarked)  His6-BRD4 (BD1) (Homo sapiens)  RUs at [10 µM]   29,64 ± 5,36 RUs

Recorded values, source paper PMC12316891.
